Reference for the values: ChEMBL document CHEMBL5244203

# Tested on: Rattus norvegicus
# assayRemarks: Neuromuscular blocking activity in Wistar rat tibialis muscle assessed as reduction in tetanus stimulated muscle twitches at 100 mg/kg, ip
# Assay type: functional, organism-based
Activity calls are given as the source filed them. No cut-off for these calls is given here.
Result category, one only: active, inactive

Example cases with answers are listed next.
C[N+](C)(C)CCOC(=O)CCC(=O)OCC[N+](C)(C)C.[Cl-].[Cl-] [SUCCINYLCHOLINE CHLORIDE] ... inactive
COc1ccc(CC2c3cc(OC)c(OC)cc3CC[N+]2(C)CCC(=O)OCCCCCOC(=O)CC[N+]2(C)CCc3cc(OC)c(OC)cc3C2Cc2ccc(OC)c(OC)c2)cc1OC.O=S(=O)([O-])c1ccccc1.O=S(=O)([O-])c1ccccc1 (centres undefined) [ATRACURIUM BESYLATE] ... active
O=C1CCCN2N=C(c3ccc(Br)cc3)SC2=N1 ... active

Prompt: Test call for this molecule, please: `O=C1CCCN2N=C(c3ccc(F)cc3)SC2=N1`
Completion: active

###

# System: Rattus norvegicus
# assayRemarks: Neuromuscular blocking activity in Wistar rat tibialis muscle assessed as reduction in electrically-induced twitches by measuring time required for 50% blockage at 100 mg/kg, ip
# Type: functional
Form field: Time (one value per entry).
Express the result in min but write the number alone.

C[N+](C)(C)CCOC(=O)CCC(=O)OCC[N+](C)(C)C.[Cl-].[Cl-] [SUCCINYLCHOLINE CHLORIDE] ... 3
COc1ccc(CC2c3cc(OC)c(OC)cc3CC[N+]2(C)CCC(=O)OCCCCCOC(=O)CC[N+]2(C)CCc3cc(OC)c(OC)cc3C2Cc2ccc(OC)c(OC)c2)cc1OC.O=S(=O)([O-])c1ccccc1.O=S(=O)([O-])c1ccccc1 (centres undefined) [ATRACURIUM BESYLATE] ... 8
O=C1CCCN2N=C(c3ccc(F)cc3)SC2=N1 ... 18

Moving on to the next molecule.
Prompt: What value of Time has been recorded for this entry: `O=C1CCCN2N=C(c3ccc(Br)cc3)SC2=N1`
Completion: 7

###

# System: Rattus norvegicus
# assayRemarks: Neuromuscular blocking activity in ip dosed Wistar rat tibialis muscle assessed as reduction in electrically-induced twitches
# Assay type: functional
Form field: ED50 (one value per entry).

The following compounds have reported results that may help.
O=C1CCCN2N=C(c3ccc(Br)cc3)SC2=N1 ... 150 µmol/kg
C[N+](C)(C)CCOC(=O)CCC(=O)OCC[N+](C)(C)C.[Cl-].[Cl-] [SUCCINYLCHOLINE CHLORIDE] ... 30 µmol/kg
COc1ccc(CC2c3cc(OC)c(OC)cc3CC[N+]2(C)CCC(=O)OCCCCCOC(=O)CC[N+]2(C)CCc3cc(OC)c(OC)cc3C2Cc2ccc(OC)c(OC)c2)cc1OC.O=S(=O)([O-])c1ccccc1.O=S(=O)([O-])c1ccccc1 (centres undefined) [ATRACURIUM BESYLATE] ... 16 µmol/kg

Prompt: What value of ED50 has been recorded for this entry: `O=C1CCCN2N=C(c3ccc(F)cc3)SC2=N1`
Completion: 360 µmol/kg
